Recorded RP-LC retention time by entry
Experiment: gradient 5% acetonitrile 3 min, to 50% in 2 min, to 85% in 15 min, held 3 min, 100 µL/min
Details: column: Zorbax Extend-C18 2.1 x 50 mm; eluents: water / acetonitrile, 0.1% formic acid
test_readout: RP-LC retention time (s)

| compound | test_readout | quantity_unit | value_measured |
| --- | --- | --- | --- |
| CS(=O)(=O)N1CC(C(=O)Nc2ccccc2)C2(CCCCC2)C1 (stereo unspecified) | RP-LC retention time | s | 875 |
| CCCCC(=O)N1CCC2(C1)C(=O)N(C)c1ccc(OC)cc12 (stereo unspecified) | RP-LC retention time | s | 744 |
| CC(C)CNC(=O)c1ccc2c(c1)CCCN2S(=O)(=O)c1ccccc1 | RP-LC retention time | s | 936 |
| O=C1CN(Cc2ccccc2)[C@H]2CS(=O)(=O)C[C@H]2N1c1ccc(Br)cc1 | RP-LC retention time | s | 845 |
| O=C(Cn1cccc1-c1nc(-c2ccc3c(c2)OCO3)no1)NCCC1=CCCCC1 | RP-LC retention time | s | 1150 |
| CCOC(=O)c1csc(NC(=O)Cn2nc3c(cc2=O)CCCC3)n1 | RP-LC retention time | s | 727 |
| Cc1ccc(-c2nc3cc(C)ccn3c2Nc2ccc3c(c2)OCCO3)cc1 | RP-LC retention time | s | 721 |
| CCC(=O)Oc1cccc(N2C(=O)c3cccc([N+](=O)[O-])c3C2=O)c1 | RP-LC retention time | s | 845 |
| O=C(CCCc1ccccc1)Nc1cccn2c(C3CCC3)nnc12 | RP-LC retention time | s | 901 |
| O=C(C1=CN(c2ccc3c(c2)CCC3)c2ccccc2S1(=O)=O)N1CCOCC1 | RP-LC retention time | s | 850 |
| O=C([C@H]1C[C@@H](F)CN1S(=O)(=O)c1ccc(C(F)(F)F)cc1)N1CCOCC1 | RP-LC retention time | s | 738 |
| COc1ccc(Cn2nc3ccc(S(=O)(=O)N4CCCC4)cn3c2=O)cc1F | RP-LC retention time | s | 862 |
| CCCc1nnsc1C(=O)NCC1CCN(C(=O)Oc2ccccc2)CC1 | RP-LC retention time | s | 863 |
| CC1=C(c2ccc(C)c(C)c2)S(=O)(=O)N=C1N1CCC(C(=O)NCCc2ccco2)CC1 | RP-LC retention time | s | 884 |
| Cc1oc(-c2ccc(C(=O)NCCN3CCOCC3)cc2)nc1CN1CCc2ccccc21 | RP-LC retention time | s | 690 |
| O=C(c1ccc2nc(N3CCOCC3)sc2c1)N1CCN(c2ccccn2)CC1 | RP-LC retention time | s | 563 |
| O=C(CCCc1c[nH]c2ccccc12)NCCc1c[nH]c2ccccc12 | RP-LC retention time | s | 830 |
| Cc1cc(NC(=O)c2sc(-c3cn(C)c4ncccc34)nc2C)ccc1F | RP-LC retention time | s | 979 |
| Cc1oc(C2CCN(C(=O)Nc3ccc(F)cc3)CC2)nc1C(=O)N(C)C | RP-LC retention time | s | 684 |
| Cc1[nH]c(C)c(S(=O)(=O)N2CCC(C(=O)NC3CCCCC3)CC2)c1C(=O)N1CCCCC1 | RP-LC retention time | s | 720 |
| CCNC(=O)C1CCN(c2nccc3sccc23)CC1 | RP-LC retention time | s | 558 |
| O=C(CN1CCN(Cc2ccccc2)C1=O)N1CCN(c2ccc(F)cc2)CC1 | RP-LC retention time | s | 813 |
| Cn1cccc1C(=O)Nc1cnn(-c2ncc(N3CCSCC3)cn2)c1 | RP-LC retention time | s | 768 |
| COc1cc(OC)cc(-c2noc(-c3nn(-c4ccc(C)c(C)c4)ccc3=O)n2)c1 | RP-LC retention time | s | 979 |
| CCOC(=O)C1CCN(Cc2nc3nc(C)cc(N4CCOCC4)n3n2)CC1 | RP-LC retention time | s | 576 |
| Cn1c(=O)c2ccn(CC(=O)N3CCN(c4ccc(F)cc4)CC3)c2n(C)c1=O | RP-LC retention time | s | 683 |
